TARGET OF ASSAY: NTRK3 (human)
PROTOCOL NOTES: KINOMEscan competition binding
TEST CONDITIONS: compound 10.0 µM
Collected kinase still bound, per cent of control values appear next to each entry.
Quick reminder: number only, in %, skip the unit.

Example compounds with recorded kinase still bound, per cent of control:
COMPOUND: Cc1cc([C@@H](C)Nc2ccccc2C(=O)O)c2nc(N3CCOCC3)cc(=O)n2c1
UNIT ANNOTATION: %
kinase still bound, per cent of control: 98

COMPOUND: COc1cc(C(=O)NC2CCN(C)CC2)ccc1Nc1ncc2c(n1)N(C1CCCC1)C(C)CC(=O)N2C (stereo unspecified)
UNIT ANNOTATION: %
kinase still bound, per cent of control: 100

COMPOUND: Cn1c(=O)n(-c2ccc(C(C)(C)C#N)cc2)c2c3cc(-c4cnc5ccccc5c4)ccc3ncc21
UNIT ANNOTATION: %
kinase still bound, per cent of control: 100

COMPOUND: OCCCNc1cc(-c2ccnc(Nc3cccc(Cl)c3)n2)ccn1
UNIT ANNOTATION: %
kinase still bound, per cent of control: 100

COMPOUND: COc1cc(C(=O)NC2CCN(C)CC2)ccc1Nc1ncc2c(n1)N(C1CCCC1)CCC(=O)N2C(C)C
UNIT ANNOTATION: %
kinase still bound, per cent of control: 100

COMPOUND: O=C1Nc2ccc(I)cc2/C1=C/c1cc(Br)c(O)c(Br)c1
UNIT ANNOTATION: %
kinase still bound, per cent of control: 35

Give the value of kinase still bound, per cent of control reported for the following: "C=CC(=O)Nc1cccc(Nc2nc(N[C@H]3CC[C@H](N(C)C)CC3)nc3c2ncn3C(C)C)c1"
28

Specify reported kinase still bound, per cent of control for the compound shown: "C=CC(=O)Nc1cccc(Oc2nc(Nc3ccc(N4CCN(C)CC4)cc3OC)ncc2Cl)c1"
100

Complete the entry with kinase still bound, per cent of control for "CCOc1cc2ncc(C#N)c(Nc3ccc(OCc4ccccn4)c(Cl)c3)c2cc1NC(=O)/C=C/CN(C)C"
78

Look up and state reported kinase still bound, per cent of control for "COc1cc(N2CCN(C)CC2)ccc1Nc1nc(N)c(C(=O)c2c(Cl)cccc2Cl)s1"
100

Give kinase still bound, per cent of control for the following compound: "Cc1ccc(C(=O)Nc2cccc(C(F)(F)F)c2)cc1Nc1cncc(C(N)=O)c1"
15

====

TARGET OF ASSAY: MYO3A (human)
PROTOCOL NOTES: KINOMEscan competition binding
TEST CONDITIONS: compound 10.0 µM
The entries below come with measured kinase still bound, per cent of control values attached.
# output: bare number, implied unit %

Worked cases, kinase still bound, per cent of control given:
ITEM SMILES: O=C(NC1CC1)c1cccc(-c2ccc3c(NC(=O)C4CC4)n[nH]c3c2)c1
TARGET OF ASSAY: MYO3A (human)
REPORTED MEASUREMENT: 72
//
ITEM SMILES: CCOc1cc2ncc(C#N)c(Nc3ccc(OCc4ccccn4)c(Cl)c3)c2cc1NC(=O)/C=C/CN(C)C
TARGET OF ASSAY: MYO3A (human)
REPORTED MEASUREMENT: 98
//
ITEM SMILES: Cc1ccc(C(=O)Nc2cccc(C(F)(F)F)c2)cc1Nc1cncc(C(N)=O)c1
TARGET OF ASSAY: MYO3A (human)
REPORTED MEASUREMENT: 100
//
ITEM SMILES: Cc1ccc(NC(=O)c2cccc(C(C)(C)C#N)c2)cc1Nc1ccc2ncn(C)c(=O)c2c1
TARGET OF ASSAY: MYO3A (human)
REPORTED MEASUREMENT: 100
//
ITEM SMILES: CN(C)C/C=C/C(=O)Nc1cccc(Nc2ncc3c(n2)N(C)c2ccccc2C(=O)N3C)c1
TARGET OF ASSAY: MYO3A (human)
REPORTED MEASUREMENT: 100

Please look at this molecule and report its kinase still bound, per cent of control: "CC[C@@H]1C(=O)N(C)c2cnc(Nc3ccc(C(=O)NC4CCN(C)CC4)cc3OC)nc2N1C1CCCC1"
100

Specify measured kinase still bound, per cent of control for "CCCS(=O)(=O)Nc1ccc(F)c(C(=O)c2c[nH]c3ncc(-c4ccc(Cl)cc4)cc23)c1F" .
57

# return recorded kinase still bound, per cent of control for input "Cn1c(=O)n(-c2ccc(C(C)(C)C#N)cc2)c2c3cc(-c4cnc5ccccc5c4)ccc3ncc21"
100

Report measured kinase still bound, per cent of control; entry is "COc1cc(C(=O)NC2CCN(C)CC2)ccc1Nc1ncc2c(n1)N(C1CCCC1)CCC(=O)N2C(C)C"
100
